test: Cytostatic effect on NHDF cells in the anti-HCMV cytopathogenicity test; assay type: cell-based; conditions: human, NHDF cells (human prepuce fibroblasts); maximum concentration with no visible cytostatic effects on NHDF cells vs untreated cell control; 6 days incubation
Could you please report measured CC50 at 6 days for the items listed next?
One number for each entry, in µM.

Cc1ccc(N2CCN(C(=O)c3cc(NC(=O)Nc4ccc(OC(F)(F)F)cc4)cs3)CC2)nc1; 21
Cc1ccc(N2CCN(C(=O)c3cnc(NC(=O)Nc4ccc(OC(F)(F)F)cc4)s3)CC2)nc1; 11
Cc1ccc(N2CCN(C(=O)c3nc(NC(=O)Nc4ccc(OC(F)(F)F)cc4)sc3C)CC2)nc1; 11

Let us examine a further case.
Prompt line: Looking for the measured CC50 at 6 days of "CCn1cc(NC(=O)Nc2ccc(OC(F)(F)F)cc2)cc1C(=O)N1CCN(c2ccc(C)cn2)CC1" , can you help?
Response line: 21

----------
Could you please report measured pEC50 for the items listed next?
system: HCMV; test: Anti-HCMV cytopathogenicity test (CPE inhibition); assay type: cell-based, human cytomegalovirus; conditions: Human betaherpesvirus 5, 144 h; concentration inhibiting CPE by 50% vs untreated virus control; HCMV-infected NHDF cells, M.O.I. 0.001-0.002, 6 days
Give bare numbers, as −log10 of the molar value.

Worked examples follow.
Cc1ccc(N2CCN(C(=O)c3cnc(NC(=O)Nc4ccc(OC(F)(F)F)cc4)s3)CC2)nc1; 8.27
Cc1ccc(N2CCN(C(=O)c3cc(NC(=O)Nc4ccc(OC(F)(F)F)cc4)cs3)CC2)nc1; 8.23

For each of the items listed, what is its pEC50?
1. CCn1cc(NC(=O)Nc2ccc(OC(F)(F)F)cc2)cc1C(=O)N1CCN(c2ccc(C)cn2)CC1
2. Cc1ccc(N2CCN(C(=O)c3nc(NC(=O)Nc4ccc(OC(F)(F)F)cc4)sc3C)CC2)nc1

Response line:
1. 9.15
2. 8.80
